// reported koff per item
- EXPERIMENTAL TARGET: T1, hIL10Ra-his (Sino Biological, Catalog#10419) (human, UniProt Q13651 22-235)
- T1 construct: Bought; also called Sino Biological cat#10419-H08H; not shown: C-terminal poly-His tag
- T1 sequence: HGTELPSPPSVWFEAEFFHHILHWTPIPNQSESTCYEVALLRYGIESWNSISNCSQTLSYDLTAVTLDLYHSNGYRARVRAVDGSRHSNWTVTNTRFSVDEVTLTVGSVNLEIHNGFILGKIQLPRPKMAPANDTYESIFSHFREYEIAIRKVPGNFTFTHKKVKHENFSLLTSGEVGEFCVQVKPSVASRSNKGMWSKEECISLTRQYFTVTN
- TEST METHOD NOTES: SPR Biacore T200; mono-Fc VHH captured on Protein A chip, hIL10Ra-his analyte; 1:1 Langmuir fit
Please reply with the bare figure in s⁻¹ and do not write the unit itself.

{"columns": ["BINDER", "koff [s⁻¹]"],
 "data": [
  ["hIL-10Ra_VHH6 Mono-Fc (Fc fusion, Mono-Fc VHH captured on Protein A; not shown: mono-Fc part) QVQLQESGGGSVQAGGSLRLSCAASRFTYSSYCMGWFRQAPGKEREGVASIDSDGSTSYTDSVKGRFTISKDNAKNTLYLQMNSLKPEDTAMYYCALDLMSTVVPGFCGFLLSAGMDYWGKGTQVTVSS", 0.00019]
]}

Record request: koff value, item hIL-10Ra_VHH12 Mono-Fc (Fc fusion, Mono-Fc VHH captured on Protein A; not shown: mono-Fc part) QVQLQESGGGSVQAGGSLRLSCTVSGYTYSSNCMGWFRQAPGKEREGVATIYTGGGNTYYADSVKGRFTISQDNAKNTVYLQMNNLKPEDTAMYYCAAEPLSRVYGGSCPTPTFDYWGQGTQVTVSS 0.00119

Look at this binder and give its reported koff. hIL-10Ra_VHH8 Mono-Fc (Fc fusion, Mono-Fc VHH captured on Protein A; not shown: mono-Fc part) QVQLQESGGGSVQAGGSLRLSCAASGYTYSMYCMGWFRQAPGKEREGVAQINSDGSTSYADSVKGRFTISKDNAKNTLYLQMNSLKPEDTAMYYCAADSRVYGGSWYERLCGPYTYEYNYWGQGTQVTVSS 0.00107

Which koff is listed for hIL-10Ra_VHH9 Mono-Fc (Fc fusion, Mono-Fc VHH captured on Protein A; not shown: mono-Fc part) QVQLQESGGGSVQAGGSLRLSCAVSGYAYSTYCMGWFRQAPGKEREGVAAIDSGGSTSYADSVKGRFTISKDNAKNTLYLRMNSLKPEDTAMYYCAAVPPPPDGGSCLFLGPEIKVSKADFRYWGQGTQVTVSS ? 0.00115

Quick check: koff of hIL-10Ra_VHH17 Mono-Fc (Fc fusion, Mono-Fc VHH captured on Protein A; not shown: mono-Fc part) QVQLQESGGGSVQAGGSLRLSCAASGYSNCSYDMTWYRQAPGKEREFVSAIHSDGSTRYADSVKGRFFISQDNAKNTVYLQMNSLKPEDTAMYYCKTDPLHCRAHGGSWYSVRANYWGQGTQVTVSS ? 0.00197

State the recorded koff for this entry: hIL-10Ra_VHH10 Mono-Fc (Fc fusion, Mono-Fc VHH captured on Protein A; not shown: mono-Fc part) QVQLQESGGGSVQAGGSLRLSCAASRYLYSIDYMAWFRQSPGKEREPVAVIYTASGATFYPDSVKGRFTISQDNAKMTVYLQMNSLKSEDTAMYYCAAVRKTDSYLFDAQSFTYWGQGTQVTVSS 0.00139

GET /values?readout=koff&item= hIL-10Ra_VHH14 Mono-Fc (Fc fusion, Mono-Fc VHH captured on Protein A; not shown: mono-Fc part) QVQLQESGGGSVQAGGSLRLSCGASGYTYSSYCMGWFRQVPGKEREGVAVIDSDGSTSYADSVKGRFTISKDNGKNTLYLQMNSLKPEDTAMYYCAADLGHYRPPCGVLYLGMDYWGKGTQVTVSS 0.000136
